# reported T/C; entries follow
test system: L1210 leukemia ip in BDF1 mice, survival T/C; test: NCI In Vivo Anticancer Drug Screen. Data for tumor model L1210 Leukemia (intraperitoneal) in B6D2F1 (BDF1) mice; settings: endpoint: mean survival time; dose: 200.0 mg/kg/injection; schedule: Q04DX003 (ip); vehicle: saline with Tween-80; higher = longer survival
Toxic doses and inconclusive results are not listed.

Example results:
O=C(O)C1CC(=O)N(Cc2ccccc2)C1 (stereo not given) :: 107 % of control
O=P(Oc1ccc(S(=O)(=O)c2ccccc2)cc1)(Oc1ccc(S(=O)(=O)c2ccccc2)cc1)Oc1ccc(S(=O)(=O)c2ccccc2)cc1 :: 91 % of control
O=C(O)CNC(=O)c1ccc([N+](=O)[O-])cc1 :: 98 % of control

Param item = `O=C(O)c1c(Cl)cccc1Cl` ; retrieve measured T/C.
95 % of control

Param item = COc1ccc2c(c1)C(CO)c1ccc(Cl)cc1N2 (stereo not given) ; retrieve measured T/C.
96 % of control

Param item = CC(C)(C)NC(=O)CCC(CC(=O)NC(C)(C)C)C1([N+](=O)[O-])CCCCC1 (stereo not given) ; retrieve measured T/C.
91 % of control

###

test system: L1210 leukemia ip in BDF1 mice, survival T/C; assay: NCI In Vivo Anticancer Drug Screen. Data for tumor model L1210 Leukemia (intraperitoneal) in B6D2F1 (BDF1) mice; settings: endpoint: mean survival time; dose: 100.0 mg/kg/injection; schedule: Q04DX003 (ip); vehicle: Klucel (hydroxypropylcellulose) (HPC); higher = longer survival
Inconclusive results and toxic doses are left out.
# reported T/C; entries follow

N#CC(CC(=O)O)=C(c1ccccc1)c1ccccc1 :: 97 % of control

Param item = `Cc1cc(=O)n(Cc2ccccc2)c(=O)[nH]1` ; retrieve measured T/C.
98 % of control

Param item = `Nc1nc(N)c(-c2ccc(Cl)c(Cl)c2)c(CBr)n1` ; retrieve measured T/C.
87 % of control

Param item = `Cc1cc(NC(=O)NCc2ccc([N+](=O)[O-])cc2Cl)ccc1S(=O)(=O)F` ; retrieve measured T/C.
98 % of control

###

# reported T/C; entries follow
system: L1210 leukemia ip in BDF1 mice, survival T/C; assay: NCI In Vivo Anticancer Drug Screen. Data for tumor model L1210 Leukemia (intraperitoneal) in B6D2F1 (BDF1) mice; conditions: endpoint: mean survival time; dose: 100.0 mg/kg/injection; schedule: Q01DX009 (ip); vehicle: saline with Tween-80; higher = longer survival
Toxic doses and inconclusive results are not listed.

Cc1ccc(S(=O)(=O)Nc2ccccc2-c2nc3ccc([N+](=O)[O-])cc3c(=O)o2)cc1 :: 104 % of control
O=C(NC(C(O)CO)C(OC(=O)c1ccccc1)C(O)CO)c1ccccc1 (stereo unspecified) :: 105 % of control
COc1cc(CCNC(=O)Cc2ccc(OCc3ccccc3)c(OC)c2)ccc1OCc1ccccc1 :: 89 % of control
O=CNc1ccc(C(=O)O)cc1 :: 95 % of control
CC12CCCCC1=CC(O)CC2 (stereo unspecified) :: 91 % of control

// lookup T/C | system=L1210 leukemia ip in BDF1 mice, survival T/C | key= `COc1cc(/C=C(/C#N)C(=O)N2CCOCC2)cc(OC)c1OC`
87 % of control

###

test system: L1210 leukemia ip in BDF1 mice, survival T/C; assay: NCI In Vivo Anticancer Drug Screen. Data for tumor model L1210 Leukemia (intraperitoneal) in B6D2F1 (BDF1) mice; details: endpoint: mean survival time; dose: 200.0 mg/kg/injection; schedule: Q04DX003 (ip); vehicle: saline; higher = longer survival
Toxic doses and inconclusive results are not listed.
# reported T/C; entries follow

Example results:
N=C(N[N+](=O)[O-])N(CCC(=O)O)N=O :: 98 % of control
CC(=O)NCCCC1CCCCC1CN (centres undefined) :: 114 % of control
CCCCC(C#N)(C(=O)OCC)C(C)(C)C (centres undefined) :: 97 % of control
NCCc1nc(C(=O)O)cs1 :: 119 % of control
CC1(C)C(=O)Nc2ccccc2N1C(=O)CN1CC2CCC(CC2)C1 :: 95 % of control

// lookup T/C | system=L1210 leukemia ip in BDF1 mice, survival T/C | key= `CCSCN(C)C`
105 % of control

// lookup T/C | system=L1210 leukemia ip in BDF1 mice, survival T/C | key= `Cc1ccc(S(=O)(=O)NCCN)cc1`
97 % of control

// lookup T/C | system=L1210 leukemia ip in BDF1 mice, survival T/C | key= `Cc1cccnc1NC(=O)NCCCl`
97 % of control

// lookup T/C | system=L1210 leukemia ip in BDF1 mice, survival T/C | key= `Cc1csc(C)[n+]1[O-]`
101 % of control

// lookup T/C | system=L1210 leukemia ip in BDF1 mice, survival T/C | key= OC(c1ccccc1)c1ccccn1 (centres undefined)
115 % of control

###

test system: L1210 leukemia ip in BDF1 mice, survival T/C; test: NCI In Vivo Anticancer Drug Screen. Data for tumor model L1210 Leukemia (intraperitoneal) in B6D2F1 (BDF1) mice; conditions: endpoint: mean survival time; dose: 300.0 mg/kg/injection; schedule: Q01DX001 (ip); vehicle: saline; higher = longer survival
Inconclusive results and toxic doses are left out.
# reported T/C; entries follow

O=C(O)C1C(Cl)C(Cl)C1C(=O)O (centres undefined) :: 96 % of control
O=C1CC2C(=O)CC1C(C(=O)O)C2C(=O)O (centres undefined) :: 105 % of control
O=c1ccc2c(Cl)cc(CN(CCO)CCO)cc2[nH]1 :: 108 % of control

Kindly review the next compound as well.
Param item = Cc1noc(NS(=O)(=O)c2ccc(N=NC3SC(=S)NC3=O)cc2)c1C (centres undefined) ; retrieve measured T/C.
101 % of control

###

system: L1210 leukemia ip in BDF1 mice, survival T/C; assay: NCI In Vivo Anticancer Drug Screen. Data for tumor model L1210 Leukemia (intraperitoneal) in B6D2F1 (BDF1) mice; settings: endpoint: mean survival time; dose: 100.0 mg/kg/injection; schedule: Q04DX002 (ip); vehicle: Klucel (hydroxypropylcellulose) (HPC); higher = longer survival
Toxic doses and inconclusive results are not listed.
property: T/C

Example results:
O=C1Nc2cccc3c2N(CCC3)C2=C1CCC2 :: 105 % of control
COc1ccc(C(=O)CC2(O)C(=O)Nc3ccc(Br)cc32)cc1 (stereo not drawn) :: 92 % of control
Cc1cc(OCC(N)=O)ccc1Cl :: 103 % of control
CCN(CCOC(=O)Nc1cc([N+](=O)[O-])ccc1C)c1ccccc1 :: 87 % of control
CC(=O)OCCOC(=O)Nc1cccc2ccccc12 :: 100 % of control
C/C(=C\c1ccccc1)C(=O)c1ccccc1 :: 100 % of control
Cc1cnc(N/N=C/c2ccccc2)nc1-c1ccccc1O :: 103 % of control
O=C1C(O)=C(c2ccccc2)C(=O)C(O)=C1c1ccccc1 :: 120 % of control
COC1OC2COc3ccccc3OC2C2C1N2C(N)=O (stereo not drawn) :: 104 % of control
O=C1NC(=S)S/C1=C/c1ccco1 :: 105 % of control

Param item = `C/C=C/N1CCN(/C=C/C)C1=O` ; retrieve measured T/C.
90 % of control

Param item = `Cc1ccc(S/C=C/Sc2ccc(C)cc2)cc1` ; retrieve measured T/C.
99 % of control

Param item = `Cc1ccc(NC(=O)OCCSc2ccc(Cl)cc2)c([N+](=O)[O-])c1` ; retrieve measured T/C.
99 % of control

###

system: L1210 leukemia ip in BDF1 mice, survival T/C; test: NCI In Vivo Anticancer Drug Screen. Data for tumor model L1210 Leukemia (intraperitoneal) in B6D2F1 (BDF1) mice; conditions: endpoint: mean survival time; dose: 50.0 mg/kg/injection; schedule: Q04DX003 (ip); vehicle: Klucel (hydroxypropylcellulose) (HPC); higher = longer survival
Toxic doses and inconclusive results are not listed.
# reported T/C; entries follow

Example results:
Nc1ncc(C[P+](c2ccccc2)(c2ccccc2)c2ccccc2)c(N)n1 :: 105 % of control
Oc1ccc(C2CCCCC2)c(O)c1 :: 101 % of control
NC(=O)C(=O)NCCCN1CC1 :: 106 % of control

Param item = `CC(=O)Nc1ccc2c(c1)Cc1cc(N=Cc3ccccn3)ccc1-2` ; retrieve measured T/C.
87 % of control

Param item = `CC(C)NC(=O)c1ccc(/C=N/N(C)C)cc1` ; retrieve measured T/C.
106 % of control

###

Tested on: L1210 leukemia ip in BDF1 mice, survival T/C
Test: NCI In Vivo Anticancer Drug Screen. Data for tumor model L1210 Leukemia (intraperitoneal) in B6D2F1 (BDF1) mice
Conditions: endpoint: mean survival time; dose: 400.0 mg/kg/injection; schedule: Q04DX003 (ip); vehicle: Klucel (hydroxypropylcellulose) (HPC); higher = longer survival
Description: The antitumor activity of compounds was measured in mice bearing transplantable tumors. Survival or tumor size were measured and the results are expressed as the measurement made in the treated group (T) divided by the measurement made in the vehicle treated control group (C). The tumor model used in this assay is L1210 Leukemia (intraperitoneal) in B6D2F1 (BDF1) mice
Toxic doses and inconclusive results are not listed.
# reported T/C; entries follow

Example results:
COc1ccc(Cl)cc1NC(=O)Nc1cc(C)ccc1Cl :: 95 % of control
Clc1ccc2nsnc2c1Cl :: 98 % of control
Cc1ccc2c(c1)CN(Cc1ccccc1)CO2 :: 97 % of control
CCCCCCCCCC1(C)OCC(COC(N)=O)O1 (stereo not drawn) :: 98 % of control
COc1cccc(NC(=O)Nc2ccccc2OC)c1 :: 100 % of control
O=C(Nc1cccc(Cl)c1)c1ccccc1 :: 101 % of control

Kindly review the next molecule as well.
Param item = `Cn1nc2c(c1-c1ccc(O)cc1)CCCc1ccccc1-2` ; retrieve measured T/C.
98 % of control
